# assay_overview: Cell cytotoxicity assay, HEP3B
# Assay type: cell-based
# test_settings: human, HEP3B cells
outcome_measure: CC50 at 5 days (nM)
// note: answer is a bare numeric in nM

Return reported CC50 at 5 days. Input molecule: COC(=O)[C@H](C)NP(=O)(OC[C@H]1OC[C@@H](n2ccc(N)nc2=O)O1)Oc1ccc(Br)cc1 (single isomer, unassigned)
348

***
Return reported CC50 at 5 days. Input molecule: CCC[C@H](C)OC(=O)[C@H](C)NP(=O)(OC[C@H]1OC[C@@H](n2cc(F)c(N)nc2=O)O1)Oc1cccc(C2CC2)c1 (single isomer, unassigned)
75

Return reported CC50 at 5 days. Input molecule: COC(=O)[C@H](C)NP(=O)(OC[C@H]1OC[C@@H](n2ccc(N)nc2=O)O1)Oc1ccc(C2CC2)cc1 (single isomer, unassigned)
210

Return reported CC50 at 5 days. Input molecule: Nc1ccn([C@@H]2CO[C@H](CO)O2)c(=O)n1 [Troxacitabine, reference compound]
279

====

Known log10 of CC50 of a selection of compounds
# System: Huh7
# assay_overview: Cell cytotoxicity assay, HUH7
# Assay type: cell-based
# test_settings: Huh7 cells, 5 days at 37° C., XTT dye
The common logarithm of CC50 in nM is what is listed.

State measured log10 of CC50 of the compound Nc1ccn([C@@H]2CO[C@H](COP(=O)(N[C@@H](Cc3ccccc3)C(=O)OCc3ccccc3)Oc3cccc(C4CC4)c3)O2)c(=O)n1 (single isomer, unassigned; dia-2) [12 dia-2] with Huh7.
3.70

State measured log10 of CC50 of the compound COC(=O)[C@H](C)NP(=O)(OC[C@H]1OC[C@@H](n2ccc(N)nc2=O)O1)Oc1ccccc1 (single isomer, unassigned; dia-2) with Huh7.
3.67

State measured log10 of CC50 of the compound C[C@H](NP(=O)(OC[C@H]1OC[C@@H](n2ccc(N)nc2=O)O1)Oc1cccc2ccccc12)C(=O)OC1CCCCC1 (single isomer, unassigned; dia-2) [6 dia-2] with Huh7.
2.50

State measured log10 of CC50 of the compound C[C@H](NP(=O)(OC[C@H]1OC[C@@H](n2ccc(N)nc2=O)O1)Oc1cccc2ccccc12)C(=O)OCc1ccccc1 (single isomer, unassigned; dia-1) [9 dia-1] with Huh7.
2.21

State measured log10 of CC50 of the compound CCCC(CCC)COC(=O)[C@H](C)NP(=O)(OC[C@H]1OC[C@@H](n2ccc(N)nc2=O)O1)Oc1ccccc1 (single isomer, unassigned; dia-2) [8 dia-2] with Huh7.
1.87

***
State measured log10 of CC50 of the compound CCC(CC)OC(=O)[C@H](C)NP(=O)(OC[C@H]1OC[C@@H](n2ccc(N)nc2=O)O1)Oc1ccccc1 (single isomer, unassigned; dia-1) [21 dia-1] with Huh7.
2.76

State measured log10 of CC50 of the compound Nc1ccn([C@@H]2CO[C@H](COP(=O)(N[C@@H](Cc3ccccc3)C(=O)OC3CCCCC3)Oc3ccc(Br)cc3)O2)c(=O)n1 (single isomer, unassigned; dia-2) [7 dia-2] with Huh7.
2.13

State measured log10 of CC50 of the compound CCC(CC)COC(=O)[C@H](C)NP(=O)(OC[C@H]1OC[C@@H](n2ccc(N)nc2=O)O1)Oc1ccccc1 (single isomer, unassigned; dia-2) [15 dia-2] with Huh7.
1.41

State measured log10 of CC50 of the compound Nc1ccn([C@@H]2CO[C@H](COP(=O)(N[C@@H](Cc3ccccc3)C(=O)OC3CCCCC3)Oc3ccc(Br)cc3)O2)c(=O)n1 (single isomer, unassigned; dia-1) [7 dia-1] with Huh7.
3.01

State measured log10 of CC50 of the compound C[C@H](NP(=O)(OC[C@H]1OC[C@@H](n2ccc(N)nc2=O)O1)Oc1cccc2ccccc12)C(=O)OCc1ccccc1 (single isomer, unassigned; dia-2) [9 dia-2] with Huh7.
2.20

State measured log10 of CC50 of the compound CCCC(CCC)COC(=O)[C@H](C)NP(=O)(OC[C@H]1OC[C@@H](n2ccc(N)nc2=O)O1)Oc1ccccc1 (single isomer, unassigned; dia-1) [8 dia-1] with Huh7.
2.09

State measured log10 of CC50 of the compound CCCC(CCC)COC(=O)C(Cc1ccccc1)NP(=O)(OCC1OCC(n2ccc(N)nc2=O)O1)Oc1ccccc1 (mixture of isomers) with Huh7.
2.82

State measured log10 of CC50 of the compound CC(C)OC(=O)[C@H](C)NP(=O)(OC[C@H]1OC[C@@H](n2ccc(N)nc2=O)O1)Oc1cccc2ccccc12 (single isomer, unassigned; dia-2) [5 dia-2] with Huh7.
2.78
